- Subject Of Test: furin, P09958
- Sequence (P09958 whole entry): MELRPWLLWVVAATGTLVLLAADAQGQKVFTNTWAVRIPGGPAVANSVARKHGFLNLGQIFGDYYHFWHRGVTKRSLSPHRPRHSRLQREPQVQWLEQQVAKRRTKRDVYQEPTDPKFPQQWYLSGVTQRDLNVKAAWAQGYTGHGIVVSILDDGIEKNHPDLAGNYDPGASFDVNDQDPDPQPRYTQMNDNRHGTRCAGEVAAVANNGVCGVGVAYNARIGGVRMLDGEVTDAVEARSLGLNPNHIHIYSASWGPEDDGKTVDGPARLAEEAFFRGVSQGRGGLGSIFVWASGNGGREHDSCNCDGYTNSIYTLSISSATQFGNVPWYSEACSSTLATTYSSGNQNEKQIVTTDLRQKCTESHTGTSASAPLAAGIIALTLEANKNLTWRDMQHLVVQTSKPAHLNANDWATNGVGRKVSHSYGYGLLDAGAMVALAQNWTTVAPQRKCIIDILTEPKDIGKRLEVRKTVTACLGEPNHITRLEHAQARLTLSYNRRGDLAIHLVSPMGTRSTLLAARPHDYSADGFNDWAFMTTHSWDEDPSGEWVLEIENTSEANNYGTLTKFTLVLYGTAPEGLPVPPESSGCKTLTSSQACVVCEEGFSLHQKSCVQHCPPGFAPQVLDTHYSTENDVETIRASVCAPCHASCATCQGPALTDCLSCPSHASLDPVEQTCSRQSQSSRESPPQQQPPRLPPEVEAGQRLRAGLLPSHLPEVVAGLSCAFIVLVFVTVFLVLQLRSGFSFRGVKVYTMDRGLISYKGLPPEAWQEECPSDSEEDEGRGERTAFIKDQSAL
- Assay Comment: furin cleavage Z-score vs untreated control; higher = more cleavage, active = 3.5 or more, inactive = 1 or less, 8 variable residues between constant flanks;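 also: purified furin at 1:10 enzyme:substrate in 50 mM HEPES pH 7.5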
- Condition Details: 30 min
The list shows a part of the results. How many sequences the whole screen found active is unknown.
The label depends only on furin cleavage Z-score: 1 if it is at least 1, 0 if it is smaller.

Before answering, review these 2 worked examples.
Decide: furin cleavage Z-score of CARAKKIFGWAGNASASA [FS-1680] >= 1?
0

Now try CARIKRAEGWAGNASASA [FS-2149] .
1

New cases:
Decide: furin cleavage Z-score of CAETWKKPDYAGNASASA [HC1310] >= 1?
0

Now try CARIKRMVFKAGNASASA [FS-1722] .
1

Now try CAEVLCHRPSAGNASASA [HC2345] .
0

Now try CARFWRSTGFAGNASASA [FS-2669] .
0
